Biological target: HIV-1 pNL4-3 integrase (Human immunodeficiency virus type 1 group M subtype B (isolate NY5) (HIV-1), UniProt P12497)
Test: Determination of enzyme (HIV integrase) inhibitory activity
Assay type: biochemical
Conditions: calculated from inhibition rate (fluorescence)
Measured IC50 by item
Give the number; nM is assumed, so skip it.

Here's what some known entries look like.
1) CCNC(=O)C1(C)CN(C(C)C)C(=O)c2c(O)c(=O)c(-c3ncc(Cc4ccc(F)cc4)s3)cn21 (stereo not shown) | 17
2) COC[C@H]1CN(C(C)C)C(=O)c2c(O)c(=O)c(-c3nnc(Cc4ccc(C(F)(F)F)cc4)s3)cn21 | 74
3) CNC(=O)[C@]1(C)CN(C(C)C)C(=O)c2c(O)c(=O)c(-c3nnc(Cc4ccc(F)cc4F)s3)cn21 | 11

Attention now shifts to the item below.
Ask: May I ask what IC50 has been recorded for CC(C)N1CC(C)(C(=O)N2CCCC2)n2cc(-c3ncc(Cc4ccc(F)cc4)s3)c(=O)c(O)c2C1=O (stereo not shown) ?
Result: 21

---

Target: HIV-1 pNL4-3 integrase (Human immunodeficiency virus type 1 group M subtype B (isolate NY5) (HIV-1))
Test: Determination of enzyme (HIV integrase) inhibitory activity
Conditions: calculated from inhibition rate (fluorescence)
Source text: The following explains evaluation methods of the HIV integrase inhibitory activity of the compound of the present invention. A full-length gene sequence (Accession No.: M19921) of HIV-1 pNL4-3 integrase was inserted into restriction enzyme Nde I and Xho I sites of plasmid pET21a(+) (manufactured by Novagen) to construct an integrase expression vector pET21a-IN-Wild type. […]
ASSAY METRIC: IC50 (nM)
The reply should be a number in nM, with the unit left off.

1) CC(C)N1C(=O)c2c(O)c(=O)c(-c3nnc(Cc4ccc(F)cc4F)s3)cn2CC1C(=O)O (stereo not shown) | 6.4
2) COCCOC[C@H]1Cn2cc(-c3nnc(Cc4ccc(F)cc4F)s3)c(=O)c(O)c2C(=O)N1CC(C)C | 21
3) COCCOC[C@@]1(C(=O)N(C)C)CN(C(C)C)C(=O)c2c(O)c(=O)c(-c3nnc(Cc4ccc(F)cc4)s3)cn21 | 24
4) CC(C)(C)N1C[C@](C)(C(=O)N2CCCC2)n2cc(-c3nnc(Cc4ccc(F)cc4)s3)c(=O)c(O)c2C1=O | 18

Ask: Recorded IC50 for `CC(C)N1C[C@H](C(C)(C)C)n2cc(-c3nnc(Cc4ccc(F)cc4)s3)c(=O)c(O)c2C1=O` , please?
Result: 11

Ask: # repeat for CC(C)N1CC(C)(C(=O)N2CCCCC2)n2cc(-c3ncc(Cc4ccc(F)cc4F)s3)c(=O)c(O)c2C1=O (stereo not shown)
Result: 12

Ask: And `C[C@]1(C(=O)N2CCC2)CN(CC2CC2)C(=O)c2c(O)c(=O)c(-c3ncc(Cc4ccc(F)cc4)s3)cn21` ?
Result: 9

---

Biological target: HIV-1 pNL4-3 integrase (Human immunodeficiency virus type 1 group M subtype B (isolate NY5) (HIV-1))
Assay: Determination of enzyme (HIV integrase) inhibitory activity
Conditions: calculated from inhibition rate (fluorescence)
ASSAY METRIC: pIC50
The scale used: pIC50 is minus the common logarithm of the concentration in molar units.

Known pIC50 results, listed for orientation:
1. CCCCOC[C@H]1CN(C(C)C)C(=O)c2c(O)c(=O)c(-c3nnc(Cc4ccc(F)cc4)s3)cn21 | 8.00
2. CC(=O)NCC1CN(C(C)C)C(=O)c2c(O)c(=O)c(-c3ncc(Cc4ccc(F)cc4F)s3)cn21 (stereo not drawn) | 8.12
3. O=C1c2c(O)c(=O)c(-c3nnc(Cc4ccc(F)cc4)s3)cn2CC(CO)N1C1CC1 (stereo not drawn) | 7.92

Ask: Give the measured pIC50 of `CC(C)C(=O)N(C)C[C@@H]1Cn2cc(-c3nnc(Cc4ccc(F)cc4F)s3)c(=O)c(O)c2C(=O)N1C(C)C` .
Result: 8.18

Ask: For `COCCOC[C@@H]1CN(CC(C)C)C(=O)c2c(O)c(=O)c(-c3nnc(Cc4ccc(F)cc4F)s3)cn21` then?
Result: 7.92

Ask: Check `CCNC(=O)[C@@]1(C)CN([C@H](C)C2CC2)C(=O)c2c(O)c(=O)c(-c3ncc(Cc4ccc(F)cc4)s3)cn21` too.
Result: 7.74

---

Target: HIV-1 pNL4-3 integrase (Human immunodeficiency virus type 1 group M subtype B (isolate NY5) (HIV-1))
Assay: Determination of enzyme (HIV integrase) inhibitory activity
Details: calculated from inhibition rate (fluorescence)
Excerpt: The following explains evaluation methods of the HIV integrase inhibitory activity of the compound of the present invention. A full-length gene sequence (Accession No.: M19921) of HIV-1 pNL4-3 integrase was inserted into restriction enzyme Nde I and Xho I sites of plasmid pET21a(+) (manufactured by Novagen) to construct an integrase expression vector pET21a-IN-Wild type. […]
ASSAY METRIC: pIC50
pIC50 field: float, defined as -log10 of concentration (mol/L).

1) CC(C)N1CC(C(=O)N(C)C)n2cc(-c3ncc(Cc4ccc(F)cc4F)s3)c(=O)c(O)c2C1=O (stereo not shown) | 8.12
2) CN(C)C(=O)CC1CN(C2CC2)C(=O)c2c(O)c(=O)c(-c3ncc(Cc4ccc(F)cc4F)s3)cn21 (stereo not shown) | 8.19
3) CC(C)N1C[C@](C)(C(=O)N2CC[C@H](O)C2)n2cc(-c3nnc(Cc4ccc(F)cc4)s3)c(=O)c(O)c2C1=O | 7.89
4) CCNC(=O)[C@@]1(C)CN(C(C)C)C(=O)c2c(O)c(=O)c(-c3nnc(Cc4ccc(F)cc4)s3)cn21 | 8.00
5) CNC(=O)C1(C)CN(C(C)C)C(=O)c2c(O)c(=O)c(-c3ncc(Cc4ccc(F)cc4)s3)cn21 (stereo not shown) | 7.82

Ask: Entry `CCNC(=O)[C@]1(COCCOC)CN(C(C)C)C(=O)c2c(O)c(=O)c(-c3ncc(Cc4ccc(F)cc4)s3)cn21` : reported pIC50 = ?
Result: 7.85

Ask: Can you check `CC[C@@H]1Cn2cc(-c3nnc(Cc4ccc(F)cc4)s3)c(=O)c(O)c2C(=O)N1CC1CC1` next?
Result: 8.24

---

Biological target: HIV-1 pNL4-3 integrase (Human immunodeficiency virus type 1 group M subtype B (isolate NY5) (HIV-1))
Assay: Determination of enzyme (HIV integrase) inhibitory activity
Details: calculated from inhibition rate (fluorescence)
pIC50: −log10 of the molar value.
So basically: pIC50 at 8 or higher? That is 1. Lower than 8? That is 0.

1. COC[C@H]1CN(C(C)C)C(=O)c2c(O)c(=O)c(-c3nnc(Cc4ccc(OC)cc4)s3)cn21 | 0

Shift focus to the following entry.
Ask: Decide: pIC50 of `CC(C)N1C(=O)c2c(O)c(=O)c(-c3nnc(Cc4ccc(F)cc4F)s3)cn2C[C@H]1CNS(C)(=O)=O` >= 8?
Result: 1

---

Target: HIV-1 pNL4-3 integrase (Human immunodeficiency virus type 1 group M subtype B (isolate NY5) (HIV-1))
Experiment: Determination of enzyme (HIV integrase) inhibitory activity
Details: calculated from inhibition rate (fluorescence)
From the text: The following explains evaluation methods of the HIV integrase inhibitory activity of the compound of the present invention. A full-length gene sequence (Accession No.: M19921) of HIV-1 pNL4-3 integrase was inserted into restriction enzyme Nde I and Xho I sites of plasmid pET21a(+) (manufactured by Novagen) to construct an integrase expression vector pET21a-IN-Wild type. […]
Could you mark each record met if its IC50 falls strictly under 10 nM, and not met if it equals or exceeds it?

Solved entries (count: 4):
1) CC(C)N1CC(C)(C(=O)N2CCOCC2)n2cc(-c3ncc(Cc4ccc(F)cc4F)s3)c(=O)c(O)c2C1=O (stereo not shown) | not met
2) COC1CN(C(=O)[C@@]2(C)CN([C@H](C)C3CC3)C(=O)c3c(O)c(=O)c(-c4ncc(Cc5ccc(F)cc5)s4)cn32)C1 | not met
3) CC(C)N1C[C@H](C)n2cc(-c3nnc(Cc4ccc(F)cc4F)s3)c(=O)c(O)c2C1=O | met
4) CCO[C@H](CC)[C@H]1CN(C(C)C)C(=O)c2c(O)c(=O)c(-c3nnc(Cc4ccc(F)cc4)s3)cn21 | not met

Ask: Strictly below 10 nM in IC50? `CC(C)N1C[C@](C)(C(=O)N2CCOCC2)n2cc(-c3nnc(Cc4ccc(F)cc4)s3)c(=O)c(O)c2C1=O`
Result: not met

Ask: Next up: CC(C)N1CC(C)(C(=O)N(C)C)n2cc(-c3ncc(Cc4ccc(F)cc4F)s3)c(=O)c(O)c2C1=O (stereo not shown) [Example 28]
Result: not met

Ask: Also, `C[C@@H]1Cn2cc(-c3nnc(Cc4ccc(F)cc4)s3)c(=O)c(O)c2C(=O)N1CC1CC1` please.
Result: met
